molecular target: CAMK1D (human); assay: radiometric filter-binding kinase assay, Kinase HotSpot; details: compound 0.5 µM; ATP 10 µM
Quick list: residual activity per entry.
MEASURED_PARAMETER: residual activity (%)

cpd_smiles=FC(F)(F)c1ccc(/C=C/c2nc(COc3ccc(CCCCn4ccnn4)cc3)co2)cc1 observed_value=109
cpd_smiles=c1ccc(-c2cnc(Nc3ccc(OCCN4CCCC4)cc3)s2)cc1 observed_value=101
cpd_smiles=O=C(O)c1ccc2c3c1cccc3c(=O)n1c3ccccc3nc21 observed_value=100
cpd_smiles=O=C1NC(=O)c2cc(Nc3ccc(F)cc3)c(Nc3ccc(F)cc3)cc21 observed_value=78.1
cpd_smiles=N#CCCc1ccc2c(c1)-c1[nH]c3ccc([N+](=O)[O-])cc3c1CC(=O)N2 observed_value=91.8
cpd_smiles=O=c1c(-c2ccc(F)cc2)c(-c2ccncc2)[nH]n1-c1ccc(Cl)cc1 observed_value=72.2
cpd_smiles=N#Cc1c(NC(=O)c2cccc3ccccc23)sc2c1CCCC2 observed_value=120
cpd_smiles=CCc1nc(-c2ccc(OC)cc2)[nH]c1-c1ccncc1 observed_value=104

----------
Quick list: residual activity per entry.
biological target: CSNK1A1 (human); test: radiometric filter-binding kinase assay, Kinase HotSpot; settings: compound 0.5 µM; ATP 10 µM
MEASURED_PARAMETER: residual activity (%)

cpd_smiles=O=C1NC(=O)c2c1c1c3ccccc3[nH]c1c1[nH]c3cc(Br)ccc3c21 assayed_target="CSNK1A1 (human)" measured_parameter="residual activity" observed_value=95.4
cpd_smiles=CCCCc1c(-c2ccc(O)cc2)[nH]c2nccnc12 assayed_target="CSNK1A1 (human)" measured_parameter="residual activity" observed_value=92.9
cpd_smiles=O=c1c(-c2ccc(F)cc2)c(-c2ccncc2)[nH]n1-c1ccc(Cl)cc1 assayed_target="CSNK1A1 (human)" measured_parameter="residual activity" observed_value=63.7
cpd_smiles=COc1cc2ncnc(Nc3ccc(O)c(Br)c3)c2cc1OC assayed_target="CSNK1A1 (human)" measured_parameter="residual activity" observed_value=89.6
cpd_smiles=COc1cc2c(Nc3ccc(Br)cc3F)ncnc2cc1OCC1CCN(C)CC1 assayed_target="CSNK1A1 (human)" measured_parameter="residual activity" observed_value=102
cpd_smiles=Cn1cc(/C=C2\C(=O)Nc3ccc(S(N)(=O)=O)cc32)c2ccccc21 assayed_target="CSNK1A1 (human)" measured_parameter="residual activity" observed_value=105
cpd_smiles=Cc1cc(Nc2nc(-c3ccccc3)nc3ccccc23)n[nH]1 assayed_target="CSNK1A1 (human)" measured_parameter="residual activity" observed_value=94.6
cpd_smiles=FC(F)(F)c1ccc(/C=C/c2nc(COc3ccc(CCCCn4ccnn4)cc3)co2)cc1 assayed_target="CSNK1A1 (human)" measured_parameter="residual activity" observed_value=98.4
cpd_smiles=O=S(=O)(NCCNC/C=C/c1ccc(Br)cc1)c1cccc2cnccc12 assayed_target="CSNK1A1 (human)" measured_parameter="residual activity" observed_value=57.9
cpd_smiles=O=c1c2ccccc2[nH]c(=S)n1CCN1CCC(=C(c2ccc(F)cc2)c2ccc(F)cc2)CC1 assayed_target="CSNK1A1 (human)" measured_parameter="residual activity" observed_value=106
cpd_smiles=CCc1nc(-c2ccc(OC)cc2)[nH]c1-c1ccncc1 assayed_target="CSNK1A1 (human)" measured_parameter="residual activity" observed_value=99.4
cpd_smiles=N#CCCc1ccc2c(c1)-c1[nH]c3ccc([N+](=O)[O-])cc3c1CC(=O)N2 assayed_target="CSNK1A1 (human)" measured_parameter="residual activity" observed_value=95.1

----------
molecular target: UniProtKB O75582; assay: radiometric filter-binding kinase assay, Kinase HotSpot; settings: compound 0.5 µM; ATP 10 µM
Sequence (O75582 whole entry, looked up): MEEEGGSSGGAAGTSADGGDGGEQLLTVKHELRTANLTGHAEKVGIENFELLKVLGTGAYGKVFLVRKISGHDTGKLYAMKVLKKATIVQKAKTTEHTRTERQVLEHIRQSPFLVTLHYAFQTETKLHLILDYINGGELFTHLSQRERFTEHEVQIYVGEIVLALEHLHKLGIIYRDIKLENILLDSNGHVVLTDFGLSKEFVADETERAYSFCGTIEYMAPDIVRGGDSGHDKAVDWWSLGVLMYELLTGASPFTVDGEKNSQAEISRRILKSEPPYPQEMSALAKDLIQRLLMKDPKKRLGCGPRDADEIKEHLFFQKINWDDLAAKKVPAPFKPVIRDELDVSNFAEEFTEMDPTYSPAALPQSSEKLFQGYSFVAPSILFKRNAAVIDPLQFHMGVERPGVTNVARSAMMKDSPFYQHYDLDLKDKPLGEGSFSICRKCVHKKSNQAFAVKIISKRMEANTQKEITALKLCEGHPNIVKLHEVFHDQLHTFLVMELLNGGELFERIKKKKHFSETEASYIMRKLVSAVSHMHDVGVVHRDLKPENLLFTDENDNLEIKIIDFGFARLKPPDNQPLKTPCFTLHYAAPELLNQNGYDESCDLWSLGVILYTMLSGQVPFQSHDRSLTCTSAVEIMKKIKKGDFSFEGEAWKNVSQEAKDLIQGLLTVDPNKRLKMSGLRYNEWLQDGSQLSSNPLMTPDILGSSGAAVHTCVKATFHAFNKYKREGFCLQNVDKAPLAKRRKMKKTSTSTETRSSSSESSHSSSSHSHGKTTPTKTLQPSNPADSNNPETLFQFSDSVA
Quick list: residual activity per entry.
MEASURED_PARAMETER: residual activity (%)

cpd_smiles=COc1cc2c(Nc3ccc(Br)cc3F)ncnc2cc1OCC1CCN(C)CC1 assayed_target="UniProtKB O75582" observed_value=101
cpd_smiles=O=c1cc(N2CCOCC2)oc2c(-c3ccccc3)cccc12 assayed_target="UniProtKB O75582" observed_value=99.5
cpd_smiles=O=c1c2ccccc2[nH]c(=S)n1CCN1CCC(=C(c2ccc(F)cc2)c2ccc(F)cc2)CC1 assayed_target="UniProtKB O75582" observed_value=105
cpd_smiles=N/C(=N\N=C/c1ccc(-c2cccc([N+](=O)[O-])c2)o1)N[N+](=O)[O-] assayed_target="UniProtKB O75582" observed_value=101

----------
Quick list: residual activity per entry.
biological target: CSNK1E (human); experiment: radiometric filter-binding kinase assay, Kinase HotSpot; settings: compound 0.5 µM; ATP 10 µM
MEASURED_PARAMETER: residual activity

cpd_smiles=N#CCCc1ccc2c(c1)-c1[nH]c3ccc([N+](=O)[O-])cc3c1CC(=O)N2 assayed_target="CSNK1E (human)" observed_value=91.4%
cpd_smiles=c1ccc(-c2cnc(Nc3ccc(OCCN4CCCC4)cc3)s2)cc1 assayed_target="CSNK1E (human)" observed_value=81.2%
cpd_smiles=O=C(O)c1ccc2c3c1cccc3c(=O)n1c3ccccc3nc21 assayed_target="CSNK1E (human)" observed_value=96%
cpd_smiles=Nc1ncnc2c1cnn2-c1ccccc1 assayed_target="CSNK1E (human)" observed_value=81.5%
cpd_smiles=Cn1cc(/C=C2\C(=O)Nc3ccc(S(N)(=O)=O)cc32)c2ccccc21 assayed_target="CSNK1E (human)" observed_value=89%
cpd_smiles=O=c1c(-c2ccc(F)cc2)c(-c2ccncc2)[nH]n1-c1ccc(Cl)cc1 assayed_target="CSNK1E (human)" observed_value=35%
cpd_smiles=N#C/C(=C1/Nc2ccccc2S1)c1ccnc(NCCc2cccnc2)n1 assayed_target="CSNK1E (human)" observed_value=74.9%
cpd_smiles=O=C1NC(=O)c2cc(Nc3ccc(F)cc3)c(Nc3ccc(F)cc3)cc21 assayed_target="CSNK1E (human)" observed_value=98%
cpd_smiles=O=c1cc(N2CCOCC2)oc2c(-c3ccccc3)cccc12 assayed_target="CSNK1E (human)" observed_value=103%
cpd_smiles=O=S(=O)(NCCNC/C=C/c1ccc(Br)cc1)c1cccc2cnccc12 assayed_target="CSNK1E (human)" observed_value=107%
cpd_smiles=COc1cccc(-c2cc(=O)c3ccccc3o2)c1N assayed_target="CSNK1E (human)" observed_value=97.5%
cpd_smiles=COc1cc2ncnc(Nc3ccc(O)c(Br)c3)c2cc1OC assayed_target="CSNK1E (human)" observed_value=85.1%
cpd_smiles=COc1cc2c(N3CCN(C(=O)Nc4ccc(OC(C)C)cc4)CC3)ncnc2cc1OCCCN1CCCCC1 assayed_target="CSNK1E (human)" observed_value=99.1%

----------
biological target: BRAF (human) (UniProt P15056); assay: radiometric filter-binding kinase assay, Kinase HotSpot; details: compound 0.5 µM; ATP 10 µM
Sequence (P15056 whole entry, looked up): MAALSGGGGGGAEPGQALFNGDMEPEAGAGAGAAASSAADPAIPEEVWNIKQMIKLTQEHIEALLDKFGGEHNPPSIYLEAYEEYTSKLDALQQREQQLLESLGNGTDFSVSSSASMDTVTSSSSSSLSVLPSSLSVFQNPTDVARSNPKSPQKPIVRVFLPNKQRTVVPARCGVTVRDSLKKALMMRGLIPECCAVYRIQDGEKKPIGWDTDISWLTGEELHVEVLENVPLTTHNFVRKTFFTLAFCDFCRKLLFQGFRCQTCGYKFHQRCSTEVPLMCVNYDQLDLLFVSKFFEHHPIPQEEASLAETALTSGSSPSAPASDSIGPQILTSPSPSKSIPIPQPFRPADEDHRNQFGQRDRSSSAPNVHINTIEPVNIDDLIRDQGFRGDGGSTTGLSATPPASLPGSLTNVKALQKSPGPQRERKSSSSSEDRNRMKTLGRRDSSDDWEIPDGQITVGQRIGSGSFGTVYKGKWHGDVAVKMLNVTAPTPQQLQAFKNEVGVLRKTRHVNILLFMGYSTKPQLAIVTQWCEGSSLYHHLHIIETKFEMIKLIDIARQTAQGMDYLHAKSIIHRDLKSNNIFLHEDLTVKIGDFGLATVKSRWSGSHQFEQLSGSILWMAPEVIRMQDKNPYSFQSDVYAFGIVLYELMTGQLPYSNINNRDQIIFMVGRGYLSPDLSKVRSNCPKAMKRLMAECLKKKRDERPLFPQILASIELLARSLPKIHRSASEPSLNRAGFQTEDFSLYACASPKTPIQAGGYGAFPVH
MEASURED_PARAMETER: residual activity (%)

cpd_smiles=CCOc1cc2ncnc(Nc3cccc(Br)c3)c2cc1OCC unit_string=% observed_value=97.1
cpd_smiles=Cc1cc(Nc2nc(-c3ccccc3)nc3ccccc23)n[nH]1 unit_string=% observed_value=99.5
cpd_smiles=O=c1[nH]c2ccccc2n1C1CCN(Cc2ccc(-c3nc4cc5[nH]cnc5cc4nc3-c3ccccc3)cc2)CC1 unit_string=% observed_value=101
cpd_smiles=COc1cccc(-c2cc(=O)c3ccccc3o2)c1N unit_string=% observed_value=93.6
cpd_smiles=COc1cc2c(cc1OC)-c1[nH]nc(Nc3cccc(F)c3)c1C2 unit_string=% observed_value=93.8

----------
target: PAK3 (human) (UniProt O75914); assay: radiometric filter-binding kinase assay, Kinase HotSpot; conditions: compound 0.5 µM; ATP 10 µM
Sequence (O75914 whole entry, looked up): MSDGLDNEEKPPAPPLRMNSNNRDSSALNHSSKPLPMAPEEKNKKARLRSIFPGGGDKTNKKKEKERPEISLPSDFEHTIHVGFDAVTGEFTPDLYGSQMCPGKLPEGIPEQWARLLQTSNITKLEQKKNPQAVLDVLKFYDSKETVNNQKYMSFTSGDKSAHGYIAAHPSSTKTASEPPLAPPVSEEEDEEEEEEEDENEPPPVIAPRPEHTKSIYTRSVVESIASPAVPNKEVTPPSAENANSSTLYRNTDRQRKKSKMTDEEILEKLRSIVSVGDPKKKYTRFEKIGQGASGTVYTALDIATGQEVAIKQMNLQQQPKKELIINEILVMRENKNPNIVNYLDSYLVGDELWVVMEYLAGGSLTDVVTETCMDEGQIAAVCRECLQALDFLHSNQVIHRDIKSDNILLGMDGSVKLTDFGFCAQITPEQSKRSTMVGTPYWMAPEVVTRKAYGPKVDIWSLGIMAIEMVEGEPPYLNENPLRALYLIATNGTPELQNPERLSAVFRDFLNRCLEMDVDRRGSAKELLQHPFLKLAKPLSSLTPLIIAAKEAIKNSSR
Quick list: residual activity per entry.
MEASURED_PARAMETER: residual activity (%)

cpd_smiles=O=C(O)c1ccc2c3c1cccc3c(=O)n1c3ccccc3nc21 observed_value=97.6
cpd_smiles=COc1cccc(-c2cc(=O)c3ccccc3o2)c1N observed_value=90.7
cpd_smiles=COc1cc2c(cc1OC)-c1[nH]nc(Nc3cccc(F)c3)c1C2 observed_value=93.1

----------
molecular target: INSR (human) (UniProt P06213); experiment: radiometric filter-binding kinase assay, Kinase HotSpot; conditions: compound 0.5 µM; ATP 10 µM
Sequence (P06213 whole entry, looked up): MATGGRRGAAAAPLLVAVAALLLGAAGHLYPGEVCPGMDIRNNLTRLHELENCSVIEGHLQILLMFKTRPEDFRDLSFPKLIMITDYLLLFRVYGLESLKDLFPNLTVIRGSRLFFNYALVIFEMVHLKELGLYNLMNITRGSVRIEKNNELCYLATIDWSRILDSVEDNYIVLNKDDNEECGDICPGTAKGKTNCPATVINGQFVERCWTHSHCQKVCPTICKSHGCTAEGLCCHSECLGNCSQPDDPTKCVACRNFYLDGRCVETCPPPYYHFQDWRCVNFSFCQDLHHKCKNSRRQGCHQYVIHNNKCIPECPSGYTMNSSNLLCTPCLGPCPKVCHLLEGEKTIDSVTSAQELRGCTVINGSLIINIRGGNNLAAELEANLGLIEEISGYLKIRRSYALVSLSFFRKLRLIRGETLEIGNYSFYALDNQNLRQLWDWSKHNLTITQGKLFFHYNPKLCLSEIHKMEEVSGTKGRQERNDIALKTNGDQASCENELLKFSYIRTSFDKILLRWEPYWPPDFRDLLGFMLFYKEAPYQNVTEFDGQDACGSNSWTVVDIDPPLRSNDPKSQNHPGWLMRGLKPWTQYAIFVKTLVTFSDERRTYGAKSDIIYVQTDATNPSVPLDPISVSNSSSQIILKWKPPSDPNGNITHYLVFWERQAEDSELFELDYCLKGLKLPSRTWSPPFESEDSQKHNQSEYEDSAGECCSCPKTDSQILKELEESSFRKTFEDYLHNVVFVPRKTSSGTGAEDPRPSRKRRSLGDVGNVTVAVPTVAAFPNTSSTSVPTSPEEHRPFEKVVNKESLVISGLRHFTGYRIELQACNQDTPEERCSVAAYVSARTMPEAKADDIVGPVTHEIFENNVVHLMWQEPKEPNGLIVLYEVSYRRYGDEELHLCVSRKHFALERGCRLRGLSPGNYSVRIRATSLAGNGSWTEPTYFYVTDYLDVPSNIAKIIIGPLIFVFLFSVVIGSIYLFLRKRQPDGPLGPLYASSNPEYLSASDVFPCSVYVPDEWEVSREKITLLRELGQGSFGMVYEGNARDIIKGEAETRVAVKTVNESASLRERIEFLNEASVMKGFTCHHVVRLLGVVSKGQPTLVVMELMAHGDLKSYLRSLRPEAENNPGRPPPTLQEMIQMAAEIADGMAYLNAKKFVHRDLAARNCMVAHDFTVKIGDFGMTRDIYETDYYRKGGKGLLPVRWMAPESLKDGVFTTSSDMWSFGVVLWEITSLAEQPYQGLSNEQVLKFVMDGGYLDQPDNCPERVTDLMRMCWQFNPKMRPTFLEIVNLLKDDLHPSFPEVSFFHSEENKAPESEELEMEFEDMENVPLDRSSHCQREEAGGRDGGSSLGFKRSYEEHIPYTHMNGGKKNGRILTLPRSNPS
MEASURED_PARAMETER: residual activity (%)

cpd_smiles=COc1cc2ncnc(Nc3ccc(O)c(Br)c3)c2cc1OC measured_parameter="residual activity" observed_value=92.4
cpd_smiles=Cn1cc(/C=C2\C(=O)Nc3ccc(S(N)(=O)=O)cc32)c2ccccc21 measured_parameter="residual activity" observed_value=87.4
cpd_smiles=FC(F)(F)c1ccc(/C=C/c2nc(COc3ccc(CCCCn4ccnn4)cc3)co2)cc1 measured_parameter="residual activity" observed_value=99.6
cpd_smiles=O=C1NC(=O)c2c1c1c3ccccc3[nH]c1c1[nH]c3cc(Br)ccc3c21 measured_parameter="residual activity" observed_value=86.4
cpd_smiles=COc1cc2c(cc1OC)-c1[nH]nc(Nc3cccc(F)c3)c1C2 measured_parameter="residual activity" observed_value=101
cpd_smiles=O=S(=O)(NCCNC/C=C/c1ccc(Br)cc1)c1cccc2cnccc12 measured_parameter="residual activity" observed_value=94.3
cpd_smiles=c1ccc(-c2cnc(Nc3ccc(OCCN4CCCC4)cc3)s2)cc1 measured_parameter="residual activity" observed_value=95
cpd_smiles=COc1cc2c(N3CCN(C(=O)Nc4ccc(OC(C)C)cc4)CC3)ncnc2cc1OCCCN1CCCCC1 measured_parameter="residual activity" observed_value=99.3
cpd_smiles=Nc1ncnc2c1cnn2-c1ccccc1 measured_parameter="residual activity" observed_value=103
cpd_smiles=CCc1nc(-c2ccc(OC)cc2)[nH]c1-c1ccncc1 measured_parameter="residual activity" observed_value=85
cpd_smiles=O=C(c1ccccc1)c1ccc(N2CCOCC2)cc1O measured_parameter="residual activity" observed_value=92.9
cpd_smiles=O=C(O)c1ccc2c3c1cccc3c(=O)n1c3ccccc3nc21 measured_parameter="residual activity" observed_value=91.5
cpd_smiles=O=C1NC(=O)c2cc(Nc3ccc(F)cc3)c(Nc3ccc(F)cc3)cc21 measured_parameter="residual activity" observed_value=98.3
cpd_smiles=N/C(=N\N=C/c1ccc(-c2cccc([N+](=O)[O-])c2)o1)N[N+](=O)[O-] measured_parameter="residual activity" observed_value=92
cpd_smiles=O=c1c2ccccc2[nH]c(=S)n1CCN1CCC(=C(c2ccc(F)cc2)c2ccc(F)cc2)CC1 measured_parameter="residual activity" observed_value=94.3
cpd_smiles=COc1cc2c(Nc3ccc(Br)cc3F)ncnc2cc1OCC1CCN(C)CC1 measured_parameter="residual activity" observed_value=102
cpd_smiles=Cc1cc(Nc2nc(-c3ccccc3)nc3ccccc23)n[nH]1 measured_parameter="residual activity" observed_value=31.6
cpd_smiles=COc1cccc(-c2cc(=O)c3ccccc3o2)c1N measured_parameter="residual activity" observed_value=106
